- Measured target: HLA-B*40:01
- Assay comment: IEDB peptide-MHC binding, purified MHC/competitive/radioactivity; bounds were set here for any values at or beyond the usual limits of such assays
- Recorded conditions: source organism: hepatitis C virus genotype 1a
Property label: pIC50
Note: pIC50 values are expressed as the negative base-10 logarithm of concentration in M.

In: For LEDRDRSEL , write its pIC50.
Out: 6.37

* * *

- Measured target: HLA-B*40:02
- Assay comment: IEDB peptide-MHC binding, purified MHC/competitive/radioactivity; bounds were set here for any values at or beyond the usual limits of such assays
- Recorded conditions: source organism: hepatitis C virus genotype 1a
Property label: pIC50
Note: pIC50 values are expressed as the negative base-10 logarithm of concentration in M.

In: For LEDRDRSEL , write its pIC50.
Out: 5.37
